Origin of the recorded values: patent US9458141B2

- measuredOn: human TSHR (Homo sapiens)
- Construct: expressed in transfected cells
- Sequence (P16473 21-764): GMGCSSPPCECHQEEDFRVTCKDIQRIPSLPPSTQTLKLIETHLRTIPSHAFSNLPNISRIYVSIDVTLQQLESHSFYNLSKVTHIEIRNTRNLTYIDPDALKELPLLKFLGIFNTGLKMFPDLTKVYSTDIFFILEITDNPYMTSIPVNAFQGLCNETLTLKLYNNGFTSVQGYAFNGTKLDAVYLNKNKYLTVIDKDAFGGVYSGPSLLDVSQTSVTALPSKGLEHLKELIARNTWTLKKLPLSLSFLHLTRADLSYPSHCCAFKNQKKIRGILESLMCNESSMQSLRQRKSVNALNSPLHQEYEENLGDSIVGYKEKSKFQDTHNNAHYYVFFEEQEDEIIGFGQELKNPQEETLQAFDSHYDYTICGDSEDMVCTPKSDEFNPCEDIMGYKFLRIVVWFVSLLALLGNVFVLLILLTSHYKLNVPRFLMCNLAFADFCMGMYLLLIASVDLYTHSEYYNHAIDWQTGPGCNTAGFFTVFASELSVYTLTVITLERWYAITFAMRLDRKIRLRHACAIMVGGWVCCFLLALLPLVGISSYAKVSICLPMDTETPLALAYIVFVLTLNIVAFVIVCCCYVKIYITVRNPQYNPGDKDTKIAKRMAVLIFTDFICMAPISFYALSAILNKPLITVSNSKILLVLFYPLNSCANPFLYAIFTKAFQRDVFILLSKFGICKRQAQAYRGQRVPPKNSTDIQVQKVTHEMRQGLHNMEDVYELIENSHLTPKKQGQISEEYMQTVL
- assayNotes: Homogeneous Time Resolved Fluorescence (HTRF) cAMP assay, TSHR cell line
- Type: cell-based
- conditionContext: HTRF cAMP, TSHR cell line, 30 minute incubation; read-out: AC50
testReadout: AC50 (µM)

>>> df
                                   compound  readoutnumber
0  COc1ccc(C2Nc3ccccc3C(=O)N2Cc2ccccc2C(F)(F)F)cc1COc1ccc(NC(C)=O)cc1 (stereo not shown) [Structure 88]           5.62
1  COc1ccc(C2Nc3ccccc3C(=O)N2Cc2ccccc2C)cc1COc1ccc(NC(C)=O)cc1 (stereo not shown) [Structure 281]           5.62
2  COc1ccc(-c2nc3ccccc3c(=O)n2Cc2ccccc2)cc1COc1ccc(NC(C)=O)cc1 [Structure 52]           8.91
3  COc1cccc(CN2C(=O)c3ccccc3NC2c2ccc(OC)c(COc3ccc(NC(C)=O)cc3)c2)c1 (stereo not shown) [Structure 18]           6.31
